Target: Cytochrome P450 2C9 (Homo sapiens)
Test: Cytochrome P450 family 2 subfamily C member 9 (CYP2C9) small molecule antagonists: luciferase biochemical (cell-free) qHTS assay (AID 1645842); further: nearly all actives have a fitted effect of over 55% in size; further: potency means the concentration at half of the fitted maximal effect
Conditions: P450-Glo CYP2C9 enzyme assay, luciferin luminescence; series mostly up to 57.4 µM
Inconclusive results are not listed. Calls of active or inactive are those of the source. The call rests on the fitted dose curve; in most records, active means well fitted inhibition curve with a large enough effect in the repeat runs; inconclusive means weak or mixed curves; inactive means no such curve, though single readings can be large or run the other way.
outcome.measure: Potency

# annotated cases, reported Potency shown
molecule	Potency
NC(=O)NC(=O)Cc1ccccc1	inactive
NC1CCN(c2cccc(Cl)n2)CC1	inactive
CC[N+](CC)(CC)CCOc1ccc(/C=C/c2ccccc2)cc1	inactive
CCCCC/C(C=O)=C\c1ccccc1	inactive
Cc1cc(C(C#N)c2ccc(Cl)cc2)c(Cl)cc1NC(=O)c1cc(I)cc(I)c1O (stereo not given)	21.9 µM (active)

Return reported Potency values for all items listed beneath this line.
1. COc1ccccc1O
2. O=c1cc[nH]c(=S)[nH]1
3. CC(=O)NC(Cc1ccccc1)C(=O)O (stereo not given)
4. CC/C=C(\C(=O)N[C@@H]1C(=O)N2C(C(=O)OCOC(=O)C(C)(C)C)=C(COC(N)=O)CS[C@H]12)c1csc(N)n1
5. COc1ccc2[nH]c(S(=O)Cc3ncc(C)c(OC)c3C)nc2n1 (stereo not given)
6. CNCC(O)c1ccc(O)c(O)c1 (stereo not given)
7. O=C1NC(=O)[C@@]2(CCOc3ccc(F)cc32)N1
8. CC(C)(O)c1ccccc1CC[C@@H](SCC1(CC(=O)O)CC1)c1cccc(/C=C/c2ccc3ccc(Cl)cc3n2)c1

OUTPUT:
1. inactive
2. inactive
3. inactive
4. 15.5 µM (active)
5. 10.7 µM (active)
6. inactive
7. inactive
8. inactive

Return reported Potency values for all items listed beneath this line.
1. Oc1cn2c(n1)Nc1ccc(Cl)c(Cl)c1C2
2. C=Cc1c(C)c2cc3[nH]c(cc4nc(cc5nc(cc1[nH]2)C(C)=C5CCC(=O)O)C(CCC(=O)O)=C4C)c(C)c3C=C

OUTPUT:
1: 6.74 µM (active); 2: inactive
